// provenance: patent US20230118024A1

Kindly state FIG. 30 FACS value (IC17=0, DQN0139bb=100) for each of the entries shown.
TESTED_SYSTEM: T1, HLA-DQ2.5/alpha 1b gliadin peptide complex on Ba/F3 cells (human; wheat)
T1 construct: also called Ba/F3-HLA-DQ2.5/alpha 1b gliadin peptide
METHOD_NOTES: FACS
One number for each entry.

Give me FIG. 30 FACS value (IC17=0, DQN0139bb=100) for each of these binders, listed below.
1. DQN0334bb (antibody, human IgG1, kappa, V domains shown, also called DQN0334Hb; DQN0334Lb) VH: QQQLEESGGDLVQPEGSLTLTCKASGFDFSFNAMCWVRQAPGRGPEWIACIYNGNGSTYYASWAKGRFTISKTSSTSVTLQMTSLTAADTATYFCARGGYGLGYAGYGDVNYFNLWGPGTLVTVSS VL: AVVLTQTASPVSAPVGGTVTIKCQASEDIYFLLAWYRQKPGQPPKLLIYGASTLASGVPSRFKGSGSGTEYTLTISDLECADAATYYCQSYWYGDSGPNTFGGGTKVEIKR
2. DQN0324hh (antibody, human IgG1, kappa, V domains shown, also called DQN0324Lh) VH: QSLEESGGDLVKPGASLALTCTASGFSLINNYYMCWVRQAPGKGLEWIACIYAGLGGWTYYASWAKGRFTISKTSSTTVTLQMSSLTVADAATYFCARAATTYYHFNLWGPGTLVTVSS VL: AVVLTQTESPVSAAVGDTVTIKCQASQSIGNALAWYQQKPGQPPKLLIYDASTLASGVPSRFKGSGSGTQFTLTISDLECADAATYYCQSYDYGSSADTYTFGGGTKVEIKR

Result:
1: 16.5; 2: 8.2

Query: Can you look up the measured FIG. 30 FACS value (IC17=0, DQN0139bb=100) of DQN0271hh (antibody, human IgG1, kappa, V domains shown, also called DQN0271Lh) VH: QSLEESGGGLVKPGASLTLTCKASGFSFSSGYYMCWVRQAPGKGLEWIACIYAGSPDLTYYATWAKGRLTISTTSSTTVTLQLTSLTAADTATYFCARDPGNWGGYDDVRLWGPGTLVTVSS VL: AQVLTQTPSPVSAAVGGTVTISCQSSQSIYSNYLSWFQQKTGQPPKLLIYRASTLASGVPSRFKGSGSGTEFTLTISGVECDDAATYYCQGYYSGAIWTFGGGTKVEIKR for me?
Result: 80.5
